Values were extracted from PubChem BioAssay AID248.

system: L1210 leukemia ip in BDF1 mice, survival T/C; assay: NCI In Vivo Anticancer Drug Screen. Data for tumor model L1210 Leukemia (intraperitoneal) in B6D2F1 (BDF1) mice; details: endpoint: mean survival time; dose: 200.0 mg/kg/injection; schedule: Q01DX001 (ip); vehicle: saline with Tween-80
Toxic doses and inconclusive results are not listed. Rule as the data show it: active = T/C of 150% or more; inactive = T/C below 125%.
Hello, when you answer, please use one of the following outcomes: YES for active, NO for inactive

Sample answers from the record:
MOLECULE | GROUP
O=C(NC(=S)Nc1cc(C(F)(F)F)ccc1Cl)c1cccc([N+](=O)[O-])c1 | NO
Cc1ccc(S(=O)(=O)OC2CCC(=O)C3CC4(CCC23)OCCO4)cc1 (configuration not stated) | NO
CCCCCCCC(C(=O)O)C(C)C (configuration not stated) | NO
CCOCN1CCCC1 | NO

**Query** Please state the recorded outcome for this molecule: CCCCCCN(CCCCCC)CP(=S)(CN(CCCCCC)CCCCCC)CN(CCCCCC)CCCCCC
**Result** NO

**Query** Please state the recorded outcome for this molecule: CCCCC1C2CCCCC2CC2CCCCC21 (configuration not stated)
**Result** NO

**Query** Please state the recorded outcome for this molecule: COC1OC2COC(c3ccccc3)OC2C(O)C1NC(C)=O (configuration not stated)
**Result** NO

**Query** Please state the recorded outcome for this molecule: CCOC(=O)C(C)SCC(CSC(C)C(=O)OCC)(CSC(C)C(=O)OCC)CSC(C)C(=O)OCC (configuration not stated)
**Result** NO

**Query** Please state the recorded outcome for this molecule: O=C(COc1ccccc1)NCCNC(=S)Nc1ccccc1
**Result** NO

**Query** Please state the recorded outcome for this molecule: CCCCCCCCCCCCCCCCCOc1ccc2ccccc2c1
**Result** NO

**Query** Please state the recorded outcome for this molecule: Nc1cccc(CCc2nc(N)nc(N)c2-c2ccc(Cl)cc2)c1
**Result** NO

**Query** Please state the recorded outcome for this molecule: CSc1ccccc1C=Nc1ccccc1O
**Result** NO

**Query** Please state the recorded outcome for this molecule: S=c1cc[nH]c2n[nH]nc12
**Result** NO

**Query** Please state the recorded outcome for this molecule: O=C(NC/C=C/Br)C(F)(F)F
**Result** NO

**Query** Please state the recorded outcome for this molecule: CCOC(=O)c1ccc(N2C(C#N)c3ccccc3OC2c2ccccc2O)cc1 (configuration not stated)
**Result** NO

**Query** Please state the recorded outcome for this molecule: O=NN(CCCl)C(=O)NC1CCC(CCl)CC1 (configuration not stated)
**Result** YES

**Query** Please state the recorded outcome for this molecule: O=C1Nc2ccccc2C12Nc1cccnc1N2 (configuration not stated)
**Result** NO

**Query** Please state the recorded outcome for this molecule: CCCCCCCCCCCCCC(CCCCCCCCCCCC)CCCCCCCCCCCC
**Result** NO

**Query** Please state the recorded outcome for this molecule: CCC(CO)NC(=O)/C=C/c1ccccc1 (configuration not stated)
**Result** NO

**Query** Please state the recorded outcome for this molecule: CS(=O)(=O)CC(=O)c1ccc(O)cc1O
**Result** NO

**Query** Please state the recorded outcome for this molecule: O=C1/C(=C\c2ccccc2Cl)N2CCC1CC2
**Result** NO

**Query** Please state the recorded outcome for this molecule: O=C(Nc1ccc(F)cc1)Nc1ccc(Cl)cc1[N+](=O)[O-]
**Result** NO
